These data points were gathered from paper PMC13266984.

Target: Human ALDH3A1 (Homo sapiens)
Assay: ALDH3A1 biochemical assay (benzaldehyde/NADP+, diaphorase-resazurin readout, 1,536-well)
READOUT NAME: log10 of AC50 (log10 of the value in nM)

MOLECULE: COc1ccc(F)c(N2CCN(c3nc(C(=O)NCc4cccc(C)c4)cs3)CC2)c1 [NCGC01211189-01]
STUDY TARGET: Human ALDH3A1 (Homo sapiens)
log10 of AC50: 2.96
//
MOLECULE: Cc1cccc(CNC(=O)c2csc(N3CCN(c4ccc(Cl)c(Cl)c4)CC3)n2)c1 [NCGC01211120-01]
STUDY TARGET: Human ALDH3A1 (Homo sapiens)
log10 of AC50: 2.71
//
MOLECULE: Cc1nn(Cc2ccccc2)c(C)c1[C@@H]1C=C[C@@H](NC(=O)c2ccco2)C1 [NCGC00397524-03]
STUDY TARGET: Human ALDH3A1 (Homo sapiens)
log10 of AC50: 3.50
//
MOLECULE: O=C(NCc1cccc(N2CCC2=O)c1)c1csc(N2CCN(c3cccc(C(F)(F)F)c3)CC2)n1 [Compound 20]
STUDY TARGET: Human ALDH3A1 (Homo sapiens)
log10 of AC50: 1.80
//
MOLECULE: C[S+](=O)([O-])c1ccc(CN2C[C@H](O)C[C@H]2c2nc(C3CC3)no2)cc1 [NCGC00396353-01]
STUDY TARGET: Human ALDH3A1 (Homo sapiens)
log10 of AC50: 4.55
//
MOLECULE: Cc1cccc(CNC(=O)c2csc(N3CCN(c4cccc(C)c4)CC3)n2)c1 [NCGC01211399-01]
STUDY TARGET: Human ALDH3A1 (Homo sapiens)
log10 of AC50: 3.06
//
MOLECULE: Cc1cccc(CNC(=O)c2csc(N3CCN(c4ccccc4)CC3)n2)c1 [NCGC00430642-01]
STUDY TARGET: Human ALDH3A1 (Homo sapiens)
log10 of AC50: 3.15
//
MOLECULE: COc1cccc(N2CCN(c3nc(C(=O)NCc4ccccc4F)cs3)CC2)c1 [NCGC00430688-01]
STUDY TARGET: Human ALDH3A1 (Homo sapiens)
log10 of AC50: 3.45

----------
Below, each of the molecules is paired with its reported AC50 value.
Biological target: UniProtKB P30838
Assay: ALDH3A1 biochemical assay (benzaldehyde/NADP+, diaphorase-resazurin readout, 1,536-well)
READOUT NAME: AC50

INPUT SMILES: COc1cc(CNC(=O)c2csc(N3CCN(c4cccc(C(F)(F)F)c4)CC3)n2)ccc1F
STUDY TARGET: UniProtKB P30838
READOUT NAME: AC50
TEST RESULT: 0.0159 µM
//
INPUT SMILES: N#Cc1ccc(CNC(=O)c2csc(N3CCN(c4cccc(C(F)(F)F)c4)CC3)n2)cc1F
STUDY TARGET: UniProtKB P30838
READOUT NAME: AC50
TEST RESULT: 0.0056 µM
//
INPUT SMILES: CCc1ccc(N2CCN(c3nc(C(=O)NCc4cccc(C)c4)cs3)CC2)cc1
STUDY TARGET: UniProtKB P30838
READOUT NAME: AC50
TEST RESULT: 0.91 µM
//
INPUT SMILES: Cc1cccc(CNC(=O)c2csc(N3CCN(c4cccc(C(F)(F)F)n4)CC3)n2)c1
STUDY TARGET: UniProtKB P30838
READOUT NAME: AC50
TEST RESULT: 0.58 µM
//
INPUT SMILES: O=C(NCc1ccc2c(c1)CCC2)c1csc(N2CCN(c3cccc(C(F)(F)F)c3)CC2)n1
STUDY TARGET: UniProtKB P30838
READOUT NAME: AC50
TEST RESULT: 0.0188 µM
//
INPUT SMILES: O=C(COc1cccc(CNC(=O)c2csc(N3CCN(c4cccc(C(F)(F)F)c4)CC3)n2)c1)NC1CC1
STUDY TARGET: UniProtKB P30838
READOUT NAME: AC50
TEST RESULT: 0.398 µM
//
INPUT SMILES: O=C(NCc1ccccc1)c1csc(N2CCN(c3ccc(Cl)cc3)CC2)n1
STUDY TARGET: UniProtKB P30838
READOUT NAME: AC50
TEST RESULT: 2 µM
//
INPUT SMILES: Cc1cc(C)c(C)c([S+](=O)([O-])NCCC(=O)N2CCc3[nH]c(=O)c(C#N)cc3C2)c1C
STUDY TARGET: UniProtKB P30838
READOUT NAME: AC50
TEST RESULT: 28.2 µM
//
INPUT SMILES: Cc1cc(Cl)ccc1-n1nc(C)c([C@@H]2C=C[C@@H](NC(=O)c3ccc(N(C)C)cc3)C2)c1C
STUDY TARGET: UniProtKB P30838
READOUT NAME: AC50
TEST RESULT: 3.98 µM
//
INPUT SMILES: COc1cc(C)cc(CNC(=O)c2csc(N3CCN(c4cccc(C(F)(F)F)c4)CC3)n2)c1
STUDY TARGET: UniProtKB P30838
READOUT NAME: AC50
TEST RESULT: 0.0141 µM
//
INPUT SMILES: O=C(NCc1ccc(C(F)(F)F)c(Cl)c1)c1csc(N2CCN(c3cccc(C(F)(F)F)c3)CC2)n1
STUDY TARGET: UniProtKB P30838
READOUT NAME: AC50
TEST RESULT: 0.0282 µM
//
INPUT SMILES: COc1ccc(N2CCN(c3nc(C(=O)NCc4cccc(C)c4)cs3)CC2)cc1O
STUDY TARGET: UniProtKB P30838
READOUT NAME: AC50
TEST RESULT: 1.15 µM
//
INPUT SMILES: Cc1cc(CNC(=O)c2cc(-c3cnn(C)c3)cc3c2OCCN3C)no1
STUDY TARGET: UniProtKB P30838
READOUT NAME: AC50
TEST RESULT: 15.8 µM
//
INPUT SMILES: CN1CCOc2c(C(=O)NCCC(N)=O)cc(-c3ccc(O)c(F)c3)cc21
STUDY TARGET: UniProtKB P30838
READOUT NAME: AC50
TEST RESULT: 14.1 µM
//
INPUT SMILES: COC(=O)c1ccc2nc(CO[C@H]3CN(C(C)=O)C[C@H]3F)[nH]c2c1
STUDY TARGET: UniProtKB P30838
READOUT NAME: AC50
TEST RESULT: 0.32 µM
//
INPUT SMILES: O=C(NCc1ccc(-c2ccsc2)cc1)c1csc(N2CCN(c3cccc(C(F)(F)F)c3)CC2)n1
STUDY TARGET: UniProtKB P30838
READOUT NAME: AC50
TEST RESULT: 0.004 µM

----------
Target: OE19 (3A1) (Homo sapiens, UniProt P30838)
Sequence (P30838 whole entry): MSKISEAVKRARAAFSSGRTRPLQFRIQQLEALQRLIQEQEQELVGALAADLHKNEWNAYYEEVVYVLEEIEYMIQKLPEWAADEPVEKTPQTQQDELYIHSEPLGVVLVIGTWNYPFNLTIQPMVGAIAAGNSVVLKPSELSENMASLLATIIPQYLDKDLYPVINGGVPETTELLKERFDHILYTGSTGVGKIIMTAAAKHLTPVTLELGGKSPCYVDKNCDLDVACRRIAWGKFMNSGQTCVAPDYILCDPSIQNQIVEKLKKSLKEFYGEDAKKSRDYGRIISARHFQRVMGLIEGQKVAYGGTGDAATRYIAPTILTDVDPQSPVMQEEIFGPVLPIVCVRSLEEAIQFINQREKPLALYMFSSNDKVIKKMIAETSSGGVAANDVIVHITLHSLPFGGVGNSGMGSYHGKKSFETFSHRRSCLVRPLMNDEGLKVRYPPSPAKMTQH
Test: Cellular ALDEFLUOR assay in OE19 cells (preferential ALDH3A1 expression)
Settings: Table S4, cellular curve class
Listing of recorded Cell_CC-v2 by entry.
READOUT NAME: Cell_CC-v2

MOLECULE: Cc1cccc(CNC(=O)c2csc(N3CCN(c4cccc([N+](=O)[O-])c4)CC3)n2)c1 [Compound 8]
TEST RESULT: -2.1
--
MOLECULE: CCOC(=O)Cc1ccc(N2CCN(c3nc(C(=O)NCc4cccc(C)c4)cs3)CC2)cc1 [NCGC01212809-01]
TEST RESULT: -1.1
--
MOLECULE: Cc1cccc(CNC(=O)c2csc(N3CCN(c4cccc(OCc5ccccc5C)c4)CC3)n2)c1 [NCGC01211373-01]
TEST RESULT: -1.1
--
MOLECULE: Cc1cccc(CNC(=O)c2csc(N3CCN(c4ccc(C)c(C)c4)CC3)n2)c1 [NCGC01211295-01]
TEST RESULT: -1.3

----------
Target: Human ALDH3A1 (Homo sapiens, UniProt P30838)
Sequence (P30838 whole entry): as above
Test: ALDH3A1 biochemical assay (benzaldehyde/NADP+, diaphorase-resazurin readout, 1,536-well)
READOUT NAME: log10 of AC50 (log10 of the value in µM)

MOLECULE: O=C(NCc1nc(-c2ccccc2)no1)C1CCN(c2cc(-n3cncn3)ncn2)CC1 [NCGC00526793-01]
log10 of AC50: 1.55
--
MOLECULE: Cc1cccc(CNC(=O)c2csc(N3CCN(c4ccc(F)c(Cl)c4)CC3)n2)c1 [Compound 12]
log10 of AC50: -0.29
--
MOLECULE: Cc1cccc(CNC(=O)c2csc(N3CCN(c4cc(Cl)c(Cl)c(Cl)c4)CC3)n2)c1 [NCGC01211545-01]
log10 of AC50: -0.24
--
MOLECULE: O=C(NC1CCCC1)c1csc(N2CCN(c3cccc(Cl)c3)CC2)n1 [NCGC00430704-01]
log10 of AC50: 1.20
--
MOLECULE: CC(=O)Nc1ccc(CN2CC(Oc3ccc4c(c3)OCO4)C2)cc1 [NCGC00373680-01]
log10 of AC50: 0.90
--
MOLECULE: O=C(NCc1ccc2cc(Cl)ccc2c1)c1csc(N2CCN(c3cccc(C(F)(F)F)c3)CC2)n1 [NCGC01407805-01]
log10 of AC50: -2.55
--
MOLECULE: Cc1cccc(CNC(=O)c2csc(N3CCN(c4ccc(N5CCOCC5)cc4)CC3)n2)c1 [NCGC01211186-01]
log10 of AC50: 0.61
--
MOLECULE: Cc1cccc(CNC(=O)c2csc(N3CCN(c4ccccc4C)CC3)n2)c1 [NCGC01211138-01]
log10 of AC50: 0.16
--
MOLECULE: Cc1cccc(CNC(=O)c2csc(N3CCN(c4ccccc4F)CC3)n2)c1 [NCGC01211127-01]
log10 of AC50: 0.01
--
MOLECULE: COc1ccc(CCN2Cc3cc(NC(=O)Cc4cccs4)ccc3OCC2=O)cc1 [NCGC00475032-01]
log10 of AC50: 1.20
--
MOLECULE: Cc1cccc(CNC(=O)c2csc(N3CCN(c4cccc(F)c4)CC3)n2)c1 [NCGC01219288-01]
log10 of AC50: 0.01
--
MOLECULE: COc1ccc(N2CCN(c3nc(C(=O)NCC4CCCCC4)cs3)CC2)cc1 [NCGC00430670-01]
log10 of AC50: -0.60
--
MOLECULE: COCc1noc(-c2ccc(NC[C@H]3CCc4ccccc4O3)nc2)n1 [NCGC00428876-01]
log10 of AC50: 1.50
--
MOLECULE: O=C(NCc1ccc(-c2ccncc2)nc1)c1csc(N2CCN(c3cccc(C(F)(F)F)c3)CC2)n1 [NCGC01397294-01]
log10 of AC50: -1.11
--
MOLECULE: O=C(NCC(F)(F)F)c1cc(C2CCN(C(=O)c3cc(-c4ccco4)n[nH]3)CC2)n[nH]1 [NCGC00528999-01]
log10 of AC50: 1.15
--
MOLECULE: Cc1cc(OC2CN(C(=O)c3cc(-c4ccc(F)cc4)n[nH]3)C2)n2ncnc2n1 [NCGC00531207-01]
log10 of AC50: 1.15
--
MOLECULE: O=C(NCc1ccc2c(c1)CNC2=O)c1csc(N2CCN(c3cccc(C(F)(F)F)c3)CC2)n1 [NCGC01397290-02]
log10 of AC50: -0.40
--
MOLECULE: COc1ccccc1N1CCN(c2nc(C(=O)NCc3cccc(C)c3)cs2)CC1 [NCGC01210996-01]
log10 of AC50: -0.04
--
MOLECULE: Cc1ccc(CNC(=O)c2csc(N3CCN(c4cccc(C(F)(F)F)c4)CC3)n2)cc1C(F)(F)F [NCGC01407772-01]
log10 of AC50: -1.22
--
MOLECULE: Cc1c(-c2cc(C(=O)NCc3cccnc3)c3c(c2)N(C)CCO3)cnn1C [NCGC00417124-01]
log10 of AC50: 0.45
--
MOLECULE: COCCNC(=O)c1ccc2c(c1)N(C)C(CC(=O)NCC(C)C)CO2 (centres unmarked) [NCGC00429361-01]
log10 of AC50: 1.45
--
MOLECULE: Cc1cccc(CNC(=O)c2csc(N3CCN(c4cccc(C(F)(F)F)c4)CC3)n2)c1 [Compound 5]
log10 of AC50: -0.64
--
MOLECULE: O=C(NCc1cccc(N2CCCC2=O)c1)c1csc(N2CCN(c3cccc(C(F)(F)F)c3)CC2)n1 [NCGC01397385-01]
log10 of AC50: -0.15
--
MOLECULE: COc1cccc(N2CCN(c3nc(C(=O)NCc4cccc(C)c4)cs3)CC2)c1 [Compound 2]
log10 of AC50: 0.40
--
MOLECULE: COc1cccc(NC(=O)O[C@@H]2CO[C@H]3[C@@H]2OC[C@@H]3Nc2nccc(-c3ccccc3)n2)c1 [NCGC00398388-01]
log10 of AC50: 1.45
--
MOLECULE: COc1ccc(OCc2cc(C(=O)NC(CO)C(C)C)no2)c2ccccc12 (centres unmarked) [NCGC00427669-01]
log10 of AC50: 0.60
--
MOLECULE: CC(=O)c1cccc(CNC(=O)c2csc(N3CCN(c4cccc(C(F)(F)F)c4)CC3)n2)c1 [NCGC01397289-01]
log10 of AC50: -1.60
--
MOLECULE: O=C(NCc1cccc(OC(F)(F)F)c1)c1csc(N2CCN(c3cccc(C(F)(F)F)c3)CC2)n1 [NCGC01407819-01]
log10 of AC50: -0.30
--
MOLECULE: Cc1ccc(-n2nc(C)c([C@@H]3C=C[C@@H](NCc4ccc(N(C)C)cc4)C3)c2C)cc1Cl [NCGC00395823-01]
log10 of AC50: 1.15
--
MOLECULE: COC(=O)c1ccc2nc(CO[C@H]3CN(C(=O)C4CCOCC4)C[C@H]3F)[nH]c2c1 [NCGC00392526-01]
log10 of AC50: 1.45
--
MOLECULE: Cc1cccc(CNC(=O)c2csc(N3CCN(c4ccc(C5(C#N)CC5)cc4)CC3)n2)c1 [NCGC01210256-01]
log10 of AC50: 1.16
--
MOLECULE: Cc1cccc(CNC(=O)c2csc(N3CCN(c4cccc([S+](=O)([O-])C(F)(F)F)c4)CC3)n2)c1 [NCGC01210726-01]
log10 of AC50: 1.26
